Target: human recombinant ALK1 (GST fused to ALK1 intracellular domain [His142-Gln503]) (Homo sapiens, UniProt P37023)
Construct: GST fused to ALK1 intracellular domain [His142-Gln503]
Test: ALK1-Kinase Flashplate-Assay
Conditions: 0.5 μM ATP, biotinylated α-casein substrate; read-out: Assay 1 (ALK1-Kinase Flashplate-Assay IC50 class)
pIC50: −log10 of the molar value.
Recorded pIC50, one value per entry.

Below, each entry is followed by its recorded pIC50 result.
smiles repr: COc1ccc(Nc2ccn3ncc(-c4cccc(C(C)=O)c4)c3n2)cn1
pIC50: 5.00 to 6.00
--
smiles repr: CS(=O)(=O)c1cccc(-c2cnn3ccc(Nc4ccc(N5CCOCC5)cc4)nc23)c1
pIC50: > 6.00
--
smiles repr: COc1cc(OC)cc(-c2cnn3ccc(NC4CCN(C)CC4)nc23)c1
pIC50: > 6.00

pIC50 for `c1ccc(Nc2ccn3ncc(-c4cccs4)c3n2)cc1` ?
5.00 to 6.00

Please look up its pIC50: `O=C(O)CCc1ccc(-c2cnn3ccc(Nc4ccc(O)cc4)nc23)cc1`
5.00 to 6.00

Tell me the measured pIC50 of `COc1ccc(-c2cnn3ccc(Nc4cc(OC)c(OC)c(OC)c4)nc23)cc1OC` , please.
5.00 to 6.00

What does the record list as pIC50 for `COc1ccccc1-c1cnn2ccc(Nc3ccc(O)cc3)nc12` ?
5.00 to 6.00

Endpoint output: pIC50 of `COc1cc(-c2cnn3ccc(NCc4ccncc4)nc23)cc(OC)c1OC` . Value?
> 6.00

Quick one: pIC50 for `CC(=O)c1cccc(-c2cnn3ccc(Nc4ccc(NS(=O)(=O)c5ccc(C)cc5)cc4)nc23)c1` ?
5.00 to 6.00

====

Reported IC50 by item:
Biological target: human recombinant ALK1 (GST fused to ALK1 intracellular domain [His142-Gln503]) (Homo sapiens)
Construct: GST fused to ALK1 intracellular domain [His142-Gln503]
Sequence (P37023 142-503): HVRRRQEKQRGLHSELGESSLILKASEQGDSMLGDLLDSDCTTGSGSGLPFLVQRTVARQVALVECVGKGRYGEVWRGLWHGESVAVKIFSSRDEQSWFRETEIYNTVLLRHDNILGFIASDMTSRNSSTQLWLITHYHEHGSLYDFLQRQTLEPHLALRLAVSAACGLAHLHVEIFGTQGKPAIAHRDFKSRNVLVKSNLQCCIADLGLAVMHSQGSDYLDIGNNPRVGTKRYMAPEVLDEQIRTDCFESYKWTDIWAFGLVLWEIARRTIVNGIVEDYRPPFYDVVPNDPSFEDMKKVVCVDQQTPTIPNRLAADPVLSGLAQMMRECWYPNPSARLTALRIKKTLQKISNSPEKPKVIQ
Experiment: ALK1-Kinase Flashplate-Assay
Settings: 0.5 μM ATP, biotinylated α-casein substrate; read-out: Assay 1 (ALK1-Kinase Flashplate-Assay IC50 class)

// worked examples, IC50 included
compound: CC(=O)c1cccc(-c2cnn3ccc(Nc4ccc(O)cc4)nc23)c1 [Example 193]
endpoint result: 1000 to 10000 nM
//
compound: COc1cccc(-c2cnn3ccc(NCc4ccncc4)nc23)c1 [Example 215]
endpoint result: 1000 to 10000 nM
//
compound: COc1cc(-c2cnn3ccc(Nc4ccc(C(C)C)cc4)nc23)ccc1O [Example 277]
endpoint result: < 1000 nM
//
compound: COc1ccc(-c2cnn3ccc(Nc4ccc(O)cc4)nc23)cc1 [Example 146]
endpoint result: 1000 to 10000 nM
//
compound: COc1ccc(Nc2ccn3ncc(-c4cnn(Cc5ccccc5)c4)c3n2)cn1 [Example 199]
endpoint result: 1000 to 10000 nM

Endpoint output: IC50 of CC(=O)Nc1cccc(-c2cnn3ccc(Nc4ccc(O)cc4)nc23)c1 [Example 50] . Value?
< 1000 nM

Param item = COc1ccc(-c2cnn3ccc(NC4CCC(O)CC4)nc23)cc1 (stereo not drawn) [Example 155] ; retrieve measured IC50.
1000 to 10000 nM

Can you share its IC50? I mean this compound: COc1ccc(-c2cnn3ccc(Nc4ccc(N5CCOCC5)cc4)nc23)cn1 [Example 20]
< 1000 nM

// lookup IC50 for Oc1ccc(-c2cnn3ccc(NCc4cccnc4)nc23)cc1 [Example 293]
1000 to 10000 nM

Numbers sourced from patent US20080039455A1.
